B1: tRNA (parent)
chain: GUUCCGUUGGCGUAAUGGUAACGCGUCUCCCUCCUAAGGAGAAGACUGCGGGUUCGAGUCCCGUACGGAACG

Variants of: B1
EXPERIMENT SUMMARY: yeast fitness relative to wild type (ratio to wild type); higher = fitter; tRNA-Arg(CCU), competitive growth, 37 C, YPD
Fewer inactive variants are shown than the library holds.
Entries and their yeast fitness

C11U A15U G51A G56C | ≤ 0.5
U3C G12A A45U C55U | ≤ 0.5

Next:
Item G12A C34A G51U G58A G63U has what recorded yeast fitness?
≤ 0.5
